study-system: PLK1 (Homo sapiens)
Sequence (P53350 whole entry): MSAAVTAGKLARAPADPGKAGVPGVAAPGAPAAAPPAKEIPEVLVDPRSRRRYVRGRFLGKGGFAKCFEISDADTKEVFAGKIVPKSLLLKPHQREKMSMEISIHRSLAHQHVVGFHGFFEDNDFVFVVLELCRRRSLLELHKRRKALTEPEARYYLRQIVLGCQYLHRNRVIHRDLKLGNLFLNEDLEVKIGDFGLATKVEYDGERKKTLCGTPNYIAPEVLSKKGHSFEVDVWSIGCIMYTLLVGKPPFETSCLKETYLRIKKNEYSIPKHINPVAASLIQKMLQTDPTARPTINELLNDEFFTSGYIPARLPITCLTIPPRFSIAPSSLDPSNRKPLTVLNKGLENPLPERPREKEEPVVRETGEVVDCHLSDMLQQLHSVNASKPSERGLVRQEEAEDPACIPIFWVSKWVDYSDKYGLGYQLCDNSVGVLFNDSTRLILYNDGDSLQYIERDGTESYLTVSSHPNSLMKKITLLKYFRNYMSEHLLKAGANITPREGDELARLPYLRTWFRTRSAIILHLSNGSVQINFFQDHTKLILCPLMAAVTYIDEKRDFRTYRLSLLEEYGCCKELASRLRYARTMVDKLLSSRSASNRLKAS
assay-text: PLK1 protein kinase assay (CDC25C phosphorylation, [γ-32P]-ATP)
Assay type: biochemical
measurement-setup: Table 2, PLK1 IC50; class symbols; read-out: PLK1 IC50
measured-property: IC50

| sample-smiles | measured-property | result |
| --- | --- | --- |
| COc1cc(C(=O)NCc2ccncc2)ccc1Nc1ncc2c(n1)N(C1CCCC1)CC1(CC1)C(=O)N2C | IC50 | < 100 nM |
| COc1cc(C(=O)NCCCCO)ccc1Nc1ncc2c(n1)N(C1CCCC1)CC1(CC1)C(=O)N2C | IC50 | < 100 nM |
| CN1C(=O)CCN(C2CCCC2)c2nc(Nc3ccc(CC(=O)O)cc3)ncc21 | IC50 | < 10000 nM |
| CN1C(=O)CCN(C2CCCC2)c2nc(Nc3cccc4cc[nH]c34)ncc21 | IC50 | < 1000 nM |
| Cc1cc2cc(Nc3ncc4c(n3)N(C3CCCC3)CCC(=O)N4C)ccc2[nH]1 | IC50 | < 1000 nM |

* * *

study-system: PLK1 (Homo sapiens)
assay-text: PLK1 protein kinase assay (CDC25C phosphorylation, [γ-32P]-ATP)
Assay type: biochemical
measurement-setup: Table 2, PLK1 IC50; class symbols; read-out: PLK1 IC50
pIC50: −log10 of the molar value.

| compound | study-system | pIC50 |
| --- | --- | --- |
| COc1cc(C(=O)NCC(C)O)ccc1Nc1ncc2c(n1)N(C1CCCC1)CCC(=O)N2C (stereo not shown) | PLK1 (Homo sapiens) | > 6.00 |
| CN1CCC(NS(=O)(=O)c2cccc(Nc3ncc4c(n3)N(C3CCCC3)CCC(=O)N4C)c2)CC1 | PLK1 (Homo sapiens) | > 5.00 |
| CN1C(=O)CCN(C2CCCC2)c2nc(Nc3ccc(S(=O)(=O)N(C)C)cc3)ncc21 | PLK1 (Homo sapiens) | > 5.00 |
| COc1cc(C(=O)NC2CCN(C(=O)c3ccccc3)CC2)ccc1Nc1ncc2c(n1)N(C1CCCC1)CCC(=O)N2C | PLK1 (Homo sapiens) | > 6.00 |

* * *

In this section, each of the molecules is paired with its reported pIC50.
study-system: AA (Homo sapiens)
Sequence (O14965 1-403): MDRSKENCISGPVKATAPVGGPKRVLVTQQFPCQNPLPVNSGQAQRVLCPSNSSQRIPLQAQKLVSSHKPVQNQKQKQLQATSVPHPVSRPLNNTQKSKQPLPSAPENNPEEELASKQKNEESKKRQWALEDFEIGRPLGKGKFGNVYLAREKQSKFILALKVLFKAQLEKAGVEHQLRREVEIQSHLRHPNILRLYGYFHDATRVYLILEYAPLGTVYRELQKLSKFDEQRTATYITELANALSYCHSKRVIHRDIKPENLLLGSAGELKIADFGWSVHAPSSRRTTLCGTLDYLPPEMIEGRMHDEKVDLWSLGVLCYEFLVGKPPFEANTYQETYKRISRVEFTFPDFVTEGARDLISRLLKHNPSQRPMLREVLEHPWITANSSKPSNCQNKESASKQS
assay-text: AA IC50 (Table 1; no method given)
Type: biochemical
measurement-setup: Table 2, AurA IC50; class symbols; read-out: AurA IC50
pIC50: −log10 of the molar value.

| molecule | pIC50 |
| --- | --- |
| CN1C(=O)CCN(c2ccccc2F)c2nc(Nc3ccc(C(=O)O)cc3)ncc21 [compound 50] | > 7.00 |
| CN1C(=O)CCN(C2CCCC2)c2nc(Nc3ccc(C(N)=O)cc3)ncc21 [compound 83] | > 7.00 |
| COc1cc(C(=O)N(C)C)ccc1Nc1ncc2c(n1)N(C1CCCC1)CCC(=O)N2C [compound 88] | > 5.00 |
| COc1cc(C(=O)NCCCCO)ccc1Nc1ncc2c(n1)N(C1CCCC1)CCC(=O)N2C [compound 151] | > 5.00 |
| COc1ccc(N2CCN(c3ncc4c(n3)N(C3CCCC3)CCC(=O)N4C)CC2)cc1 [compound 213] | > 5.00 |
| CN1C(=O)CCN(C2CCCC2)c2nc(Nc3ccc(S(=O)(=O)NC4CCS(=O)(=O)C4)cc3)ncc21 (stereo not shown) [compound 325] | > 6.00 |
| CNS(=O)(=O)c1ccc(Nc2ncc3c(n2)N(C2CCCC2)CCC(=O)N3C)cc1 [compound 96] | > 7.00 |
| CN1C(=O)C2(CC2)CN(C2CCCC2)c2nc(Nc3ccc(C(=O)O)cc3)ncc21 [compound 84] | > 5.00 |
| CN1C(=O)CCN(C2CCCC2)c2nc(Nc3ccc4c(c3)OCC(=O)N4)ncc21 [compound 298] | > 6.00 |
| COCCNS(=O)(=O)c1cccc(Nc2ncc3c(n2)N(C2CCCC2)CCC(=O)N3C)c1 [compound 108] | > 6.00 |
| CN1C(=O)C2(CC2)CN(C2CCCC2)c2nc(Nc3ccc4c(c3)CS(=O)(=O)C4)ncc21 [compound 78] | > 7.00 |
| CN1C(=O)CCN(C2CCCC2)c2nc(Nc3ccc4sc(C(=O)O)cc4c3)ncc21 [compound 292] | > 7.00 |
| C=CCN1CCC(=O)N(C)c2cnc(Nc3ccc4c(c3)CS(=O)(=O)C4)nc21 [compound 119] | > 7.00 |
